# Assay Notes: yeast display, Sf9 membrane polyspecificity reagent, FACS + sequencing; frameworks hold sequencing errors
Metric Name: polyreactivity (PSR sort gate)

Here are 8 sequences together with their reported answers.
QVQLVESGGGLVQAGGSLRLSCAASGITFPGYAMGWYTQAPGKERELVAVIRKSGTSTYYADSVKGRFTISRDNAKNTVYLQMNSLKPEDTAVYYCAAGGPSTLDDYWGQGTQVTVSS    low polyreactivity
QVQLVETGGGLVQAGGSLRLSCAASGRTFHRYAVGWYRQAPGKVRELVAAISFSGGSTYYADSVKGRFTISRDNAKNTVYLQMNSLKPEDTAVYYCAPRAVWSSWGRRYDSWGEGTQVTVSS    high polyreactivity
QVQLQESGRRPGAAGGSPRMSCAASGNIFWVAVMGRYRQAPGKERELVASIGFGCTTYYADSVKCRFTISRDNAKNTVYLQMISLQPEDTAVYYCAAPHYDWGELDYWGQGTQVPVSS    low polyreactivity
QVQLVDSGAGLVQAGGSLRLSCPASGRIFAVNAMGWYRKAPGKERELVAAINGGGSTNYADSVKGRFTISRDNAKNTVYLQMNSLKPQDTAVYYCAADVGWRSQTRGYYWGQGTQVTVSS    high polyreactivity
QVQLVESGGGLVQAGGTLRLSCAASGFTFGYYAMGWYRPAPGKERELVAAISSRGGTTYYADSVKGRFTISRDNAKNTVYLQMNSLKPEDTAVYYCAKDSFRNIYNYWGQGTQVTVSS    high polyreactivity
QDQLVESGGGLVQAGGSLRLSCAASGRTFYDNVMGWYRQAPGKERELVAAISSGASTNYADSVKGRFTISRDNAKNSVYFQMNSLKPEDSAVYYCATNGGGGWAYEYWGQGTQVTVSS    low polyreactivity
QVQLVESGGGLVQAGGSLRLSCASSGRTFRVNAMVRYRHAPGKERELFAAITYTGGSTYYADSVKGRFTISRDNAKNTVYLQMNSLKPEDTAVYYCAARITSPRASSRGFYYWGQGTQVTVSS    high polyreactivity
QVQLVESGGGLVQAGGSLRLICAASGITFSAYAMGWYRQAPGKERELVAAITRSGGITYYADSVKGRFTISRDNAKNSVYLQMNSLKPEDTAVYYCNKPYASPYYDSWGQGTQVTVSS    high polyreactivity

Lookup: Dear colleague, I am looking for the recorded polyreactivity (PSR sort gate) of the following sequence: QVQLVESGGGLVQAGGSLRLSCAASGSIFAFNAMGWYRQAPGKERELVAGITISDSTNYADSVKGRFTISRDNAKNTVYLQMNSLKPEDTAVYYCNADYEQYVYWYWFIKYDYWGQGTQVTVSS
Found: low polyreactivity

Lookup: Then what about the sequence QVQLVESGGGLVQAGGILRLSCAASGIIFQQYAMGWYRQAPGKERELVAAITYSGDGTYYADSEKGRFTISRDNAKNTVYLQMNSLKPEDTAVYYCNTDRKSRWARYEYWGQGTQVTVSS ?
Found: low polyreactivity

Lookup: Also QVQRVESGGGLVQAGGSLRLSCAASGRTFYGYAMGWYRQAPGKDRELVASISWSTGSTHYADSVKGRFTISRVNAKNTVYVQMNSLKPEATAVYYCAAPFWRDSYVQIDYDYWGQGTQVTVSS , if possible.
Found: low polyreactivity

---

# Assay Notes: yeast display, Sf9 membrane polyspecificity reagent, FACS + sequencing; frameworks hold sequencing errors
Metric Name: polyreactivity (PSR sort gate)

Guide cases for polyreactivity (PSR sort gate), answers given:
QVQLVESGGGLVQAGGSLRLSCAASGFYNTMGWYRQAPGKERELVAAISTGGITNYADSVKGRFTISRDNAKNTVYVLMNSLKPEDTAVYYCPADGYSTVSSSYAYWGQGTQVTVSS    low polyreactivity
QVQLVESGGGLVQAGGSLRLSCAASGLTFGGNAMGWYRQAPGKERELVAGISSSGNTNYADSVKGRFTISRDNAKNTVYLQMNSLKPEDTAVYYCAADENITYPVYDMYYWGQGTQVTVSS    low polyreactivity
QVQHVESGGGLVQAGGSLRLSCAASGYTFFANAMGGYRQAPGKERELVAGINRSGSTYYADSVKGRFTISRDNAKNTVYLQMNSLKPEDTAVYYFATAWHRGVRGRTSGAFDYWGQGTQVTVSS    high polyreactivity
QVQIVESGGGLVQEGGSLRLSFAASGSTFYYYPMGWYRQAPGKERELVAAITSGDTTNYADSVKGRFTISRDNAKNTVYLQMNSLKPEDTAVYYCAVDLNTTAFYPVAATYLDDYWGQGTQVTVSS    low polyreactivity

Now for the sequence whose polyreactivity (PSR sort gate) we want.
Lookup: What does the data say about its polyreactivity (PSR sort gate)? Entry: QVQLVESGGGLVQAGGSLRISCAASGRIFPVNAMGWYRQAPGKERELVARISWRGGTYYADSVKGRFTISRDNAKNTVYLQMNSLKPEDTAFYYCAATLASTSYWYHYGYWGQGTQVTVSS
Found: high polyreactivity

---

# Assay Notes: yeast display, Sf9 membrane polyspecificity reagent, FACS + sequencing; frameworks hold sequencing errors
Metric Name: polyreactivity (PSR sort gate)

QVQLVESGGGLVQAGGSLRLSCAASGFTFQYYAMGWYRQAPGKERELVAAISWSGGRTYYADSVKGRFTISRDIAKNTVYLQLNSLKPEDNAVYYCAASYIVYPARYEDEGDYWGQGTQVTVSS    high polyreactivity
QVQLVESGGGLVQAGGSLRLTCAASGFTFRRYAMGCYRKAPGKERLLVAAISYSGGITYYADSVKGRFTISRDNAKNTVYLHMNSLKAEDTAVYYCAADYFAPYKTYDYWGQGTQVTVSS    high polyreactivity

---

# Assay Notes: yeast display, Sf9 membrane polyspecificity reagent, FACS + sequencing; frameworks hold sequencing errors
Metric Name: polyreactivity (PSR sort gate)

Below: 4 sequences and their reported polyreactivity (PSR sort gate).
QVQLVESGGGLVQAGGSLRLSCAASGVTFYAYAMAWYRQAPGKERELVAVISQSGTRTYYADSVKGRFTISRDNAKNTVYLQMNSLKPEDTAVYYCAAPKAQLQPYYYWGQGTQVTVSS    high polyreactivity
QVQLVESGGGLVQAGGSLRLSCAASGGTFSFYTMGWYRQGPGKERELVAAIDSTGRTNYADSVKGRFTISRENAKNTVYLLMNSLKPDDTAVYYCSAGPPRADYDYWGQGTQVTVSS    low polyreactivity
QVQLVESGGGLVQAGGSLRLSCAASGRIFDLYTMGWYRQAPGKERELVAAIRWSDGSTYYADSVKGRFTISRDNAKNTDYLQMNSLKPEDTAVYYCAADSRTSYYNDDYDYWGQGTQVTVSS    low polyreactivity
QVQLVESGGGLVQAGGSLRLSCAASGNIFGVNAMGWYRQAPGKERELVAAITCSDSSTNYADSVKGRFTISRDNAKNTVYLQMNSLKPEDTAVYYCATRVWRSAQSRWYGYDYWGQGTQVTVSS    high polyreactivity

We next turn to a different sequence, shown below.
Lookup: // returns reported polyreactivity (PSR sort gate) for input QVQLVESGGGLVQAGGSLRLSCAASGRTFTTYTMGWYRQAPGKERELVASINYRGGRTYYADSVKGRFTISRDNAKNTVYLQMNSLKPEDTAVYYCAYYPYGYDYWGQGTQVTVSS
Found: high polyreactivity

---

# Assay Notes: yeast display, Sf9 membrane polyspecificity reagent, FACS + sequencing; frameworks hold sequencing errors
Metric Name: polyreactivity (PSR sort gate)

QVQRVESGGGLVQAGGSLRLTCAASGSIFRSYAMGWYRQAPGKERELVAAISSSSGSTYYADSVKGRFTISRDKAKYTVYLQMNSLKPEDTAVYYCAARYRIGNNGYEYWGQGTQVTVSS    low polyreactivity
QVQLVESGGGLVQAGGSLRLSCAASGSIFGENAMGRYRQAPGKERELVAAITSGGSTDYADSVKGRFTISRDNAKNTVYLQMNSLKPEDTAVYYCAASGRVGPGYWYDSWGQGTQVTVSS    low polyreactivity
QVQLVESGGGLVQAGGSLRLSCAASGRILYSYAMGWYRQAPGKERELVASISLSGGRTYADSVKGRFTISRDNAKNTVYLQMNSLKPEDTAVYYCNASIRTSRYLWQFDYWGQGTQVTVSS    high polyreactivity
QVQLVESGGGLVQAGGSLRVSCAASGSTFYEYAMGWYRQAPGKERELVAAITRGGTTYYADSVKGRFTISRDNAKNTDYYQMNSLKPEDTAVYYCAARTRGFTKLGYWGQGTQVTVSS    high polyreactivity
QVQLLESGGGLVQAGGSLRLSCAASGFIFDESAKGRYRQAPGKERQLVAAISWSGSRTYYADSVKGRFTISRDNAKNTVYLQMNSLKPEDTAVYYCAKVTGVGAGRRNYWGQGTQVTVSS    low polyreactivity
QVQLVESGGGLVQAGGSLRLSCAASGRTFPAYAMGWYRQAPGKERELVARISYSGGNTYYADSVKGRFTISRDNAKNTVYLQMNSLKPEDTAVYYCAATRSHYPYRSGGDYWGQGTQVTVSS    low polyreactivity
QVQLVESGGGLVQAGGSLRLSCAASGRTFVPYDMGLYRQAPGKERELVAAISSGDSTNYTDSVKGRFTISRDNAKNTVYLQMNSLKPEDTAVYYCAADLTYTMDHWGQGTQVTVSS    low polyreactivity
QVQLVESGGGLVQAGGSLRLSCAASGLTFGAYAMGWYRQAPGKEREFVAAITYSGGSTNYADSVKGRFTISRDNAKNTVYLQMNSLKPEDTAVYSCNAGYYSPWAFYPYDYWGQGTQVTVSS    high polyreactivity
QVQLVESGGGLVQAGRSLRLSCAASGRIFGTYAMGWYRQAPGKERELVAAITQSGGRTYYADSVKGRFTISRDNAKNTVYLQMNSLKPEDSAVYFCNIVTYRGIGLGYDYWGHGTQVTVSS    high polyreactivity
QVQLVESGGGLVQAGGSLLLSCAASGFTFKCYAMGWYRQAPGKERELVAAISRSGSSTYYADSVKVRFTISRDTAKNTVYLQMNSLKPEDTAVYYCAAYYRTWGGYWGQGTQVTVSS    high polyreactivity

Lookup: Would you kindly share the measured polyreactivity (PSR sort gate) for QVQLVESGGGLVQAGGSLRLSCAASGSTIGPYARGWYRQAPGKERELVAAIRYSSVRTYYADSVKGRFTISRDNAKNTVYLQMKSLKPEDTAVYYCNAVFWSYTEWGRSDYWGQGTEVTVSS ?
Found: low polyreactivity

Lookup: # repeat for QVQLVESGGCLVQAGGSLRLSCADSGLTFTHYTKGWYRQAPGKVRELVAAITTSGGSTYYADSVKGRFTISRDNAKNTVYLQMNSLKPEDTAVYDCDSDVWYWTYIGEYWGQGTQVTVSS
Found: high polyreactivity

Lookup: Quick one: QVQLVESGGGLVQAGGSLRLSCAASGSIFGRNAMGWYRQAPGREREFVATITSRGGRTYYADSVKGRFTISRDNAKNTVYLQMNSLKPEDTAVYYCAADTYISTLKKYRLGDYWGQGTQVTVSS
Found: low polyreactivity

Lookup: Next entry: QVQLVESGGGLVQAGGSLRLSCAASGSIFWSNAMGWYRQAPGKEREFVAAITWSGDNTYYADSVKGRFTISRDNAKNTVYLQMNSLKPEDTAVYYCNTEWGLFYDWTVLHIYLHGYYYWGQGTQVTVSS
Found: low polyreactivity

Lookup: What about QVQLVESGGGLVQAGGSLRLSCAASGFTFWDYTMGWYRQAPAKERELVAAINRGGNTYYADSVKGRFTISRDNAKNTVYLQMNSLKPEDSADYYCAARRRSRQYRYDYWGQGTQVTVSS ?
Found: high polyreactivity

Lookup: Also check QVQLVESGAGLVQAGGSLRLSCAASGSTFKRYAMGWYRQAPGKERELVAAITWRGGSTYYADSVKGRFTISRDNAKNTVYLQMNSLKPEDTAVYYSATDYVYRYDYWGQGTQVTVSS
Found: high polyreactivity

Lookup: Subsequent entry: QVQLQESGGGLVQAGGSLRLSCAASGYIFPRIDMGWYRQAPGKEREFDAGISYDAITNYADSVKGRFTISLDNAKNTVYLQMNSLKPEDTAVYYCAVSYYGTPLFTYWGQGTQVTVSS
Found: high polyreactivity
